Each recorded value in this set is attributed to paper PMC12591191.

- test_system: SIRT6 S56Y (human, UniProt Q8N6T7 1-355, S56Y)
- Sequence (Q8N6T7 whole entry S56Y): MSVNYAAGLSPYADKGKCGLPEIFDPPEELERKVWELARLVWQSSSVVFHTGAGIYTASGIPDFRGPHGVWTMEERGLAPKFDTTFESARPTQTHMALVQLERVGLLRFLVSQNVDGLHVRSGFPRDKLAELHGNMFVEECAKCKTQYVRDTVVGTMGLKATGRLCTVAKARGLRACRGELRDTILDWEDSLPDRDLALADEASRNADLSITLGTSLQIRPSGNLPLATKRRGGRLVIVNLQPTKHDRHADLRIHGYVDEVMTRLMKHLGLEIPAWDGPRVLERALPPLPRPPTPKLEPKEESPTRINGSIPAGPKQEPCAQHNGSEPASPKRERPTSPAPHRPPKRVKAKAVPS
- test_name: BLI; Mg2+
Where no end group is shown, it is not given here. The star is where a group is joined. Biotin = O=C1N[C@H]2[C@H](CS[C@H]2CCCCC(=O)*)N1; Myristoyl = CCCCCCCCCCCCCC(=O)*
reported_endpoint: pKd
pKd is a log-scale quantity: -log10 of the concentration expressed in molar.

Req: Determine from records and report pKd for Biotin-KQTARK(Myristoyl)STGGKARRRRR [B-H3K9^Myr-5R (biotin-KQTARK^MyrSTGGKARRRRR)]
Resp: 6.21
